Each entry below lists one item and its recorded melting point value.
Report the value in °C with no unit label.

These solved cases illustrate the format of a correct answer.
INSERT INTO measurements (compound, endpoint_result) VALUES
  ('O=c1c2cc(Cl)ccc2n2c(N3CCCCCC3)nnc2n1Cc1ccc(F)cc1', 150),
  ('O=c1c2cc(Br)ccc2n2c(N3CCCC3)nnc2n1C/C=C/c1ccncc1', 167),
  ('CCCCn1nc(N2CCCC2)n2c3ccc(Br)cc3c(=O)nc12', 130);

Recorded result, Cn1c(=O)c2cc(Cl)ccc2n2c(N3CC4(C)CC3CC(C)(C)C4)nnc12 (stereo not drawn) , melting point: 165

# compound Cc1ccc2c(c1)c(=O)n(Cc1ccccc1)c1nnc(N3CCCCCC3)n21 ; its melting point = 183

# melting point (compound: O=c1nc2n(Cc3ccccc3Cl)nc(N3CCCCCC3)n2c2ccc(Cl)cc12 ) is 228

Per the record, COc1ccc(Cn2c(=O)c3cc(Br)ccc3n3c(N4CCCCC4)nnc23)cc1OC has melting point of 178

Field melting point (entry COc1cccc(Cn2c(=O)c3cc(Cl)ccc3n3c(N4CCCCCC4)nnc23)c1 ) reads 138

Sample C#CCn1c(=O)c2cc(Br)ccc2n2c(N3CCCC3)nnc12 ; melting point observed: 204

The reported melting point of the compound CNc1ccc2c(c1)c(=O)n(Cc1ccc(C#N)cc1)c1nnc(N3CCCC3)n21 was 270

melting point measured on CCCCn1c(=O)c2cc(Br)ccc2n2c(N3CCCC3)nnc12 = 135

Consider N#Cc1ccc(Cn2c(=O)c3cc(Br)ccc3n3c(N4CCCCC4)nnc23)cc1 . Its measured melting point is 200

Note to self: melting point recorded for COC(=O)C(c1ccccc1)n1nc(N(C)C)n2c3ccc(Br)cc3c(=O)nc12 (stereo not drawn) was 83

melting point reading for COc1ccc(Cn2nc(N3CCCC3)n3c4ccc(Br)cc4c(=O)nc23)cc1 : 164

Value source: patent US6828315B1
